B1: Osa-1-4 twister ribozyme (parent)
chain: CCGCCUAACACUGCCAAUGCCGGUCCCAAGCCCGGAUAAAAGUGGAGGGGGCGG

- Variants of: B1
- protocol: self-cleavage, relative activity (ratio to wild type); higher = more cleavage; co-transcriptional
Below, each entry is listed with its recorded self-cleavage.

- sequence_data: "CCGCCUAACACUCCCAAUGCCGGUCCCAAGCCCGGAUAAAAGUGGAGGGGGCGC"
  self-cleavage: 0.02
- sequence_data: "CCGCCUAACACUGCCAAUGCCGGUCCCAAGCCCAGAUAAAAGUGGACGGGGCGG"
  self-cleavage: 0.08
- sequence_data: "CCGCCUAACACUGCCAAGGCCGGGCCCAAGCCCGGAUAAAAGUGGAGGGGGCGG"
  self-cleavage: 0.05
- sequence_data: "CCGCCUAACACUGCCAAUGCCGGUGGCAAGCCCGGAUAAAAGUGGAGGGGGCGG"
  self-cleavage: 0.12
- sequence_data: "CCGCCUAACACUGCCAAAGCCGGUCCCAAGCCCGGAUAAAAGUGGAGCGGGCGG"
  self-cleavage: 0.09
- sequence_data: "CCGCCUAACACUGCCAAUGCCGGUCCCAAGCCCGGAUCAAAGAGGAGGGGGCGG"
  self-cleavage: 0.88
- sequence_data: "CCGCCUAACACUGCCAAUGCCGGUACCAAGCCCAGAUAAAAGUGGAGGGGGCGG"
  self-cleavage: 0.11
- sequence_data: "CCGCCUAACACGGCCAAUGCCGGUCCCAAGCCCGGAUAAAAGUGGAGGGGGGGG"
  self-cleavage: 0.32
- sequence_data: "CCGCCUAACACUGCCAAUGCCGGUCCCAAGCCCGGAUAAAAGGGGAGGGGGCGU"
  self-cleavage: 0.7
- sequence_data: "CCGCCUAACACUGCCAACGCCGGUCCCAAGCCCGGAUAAAAGUGGAGGGGCCGG"
  self-cleavage: 0.13
- sequence_data: "CCGCCUAACACUGCCAAUGCCGAUCCCCAGCCCGGAUAAAAGUGGAGGGGGCGG"
  self-cleavage: 0.2
- sequence_data: "CCGCCUAACACUGCCAUUGCCGGUCCCAAGCCCGGAUAAAGGUGGAGGGGGCGG"
  self-cleavage: 0.9
- sequence_data: "CCGCCUAACACUGCCACUGCCGGUCCCAAGCGCGGAUAAAAGUGGAGGGGGCGG"
  self-cleavage: 0.08
- sequence_data: "CCGCCUCACACUCCCAAUGCCGGUCCCAAGCCCGGAUAAAAGUGGAGGGGGCGG"
  self-cleavage: 0.02
- sequence_data: "CCGCCUAACACUGCCAAUGCCGGUCCCAAGCCCGGAUAAAAGUGGAGAGGUCGG"
  self-cleavage: 0.05
- sequence_data: "CCGCCUACCACUGCCAAUGCCGGUCCCAAGCACGGAUAAAAGUGGAGGGGGCGG"
  self-cleavage: 0.04
- sequence_data: "CCGCCUAACACUGCCAAUGCCGCUCCCAAGCCCGGAUAAAAGUGGAGGGCGCGG"
  self-cleavage: 0.04
- sequence_data: "CCGCCUAACAAUGCCAAUGCCAGUCCCAAGCCCGGAUAAAAGUGGAGGGGGCGG"
  self-cleavage: 0.24
- sequence_data: "CCGCCUAACACAGCCAAUGCCGGUCCCAAGCCCGGACAAAAGUGGAGGGGGCGG"
  self-cleavage: 1
- sequence_data: "CCGCCUGACACUGCCAAUGCCGGUCCCAAGCCCGGAUAACAGUGGAGGGGGCGG"
  self-cleavage: 0.06
- sequence_data: "CCGCCUAACAAUGCCAAUGCCGGUCCCAAGCCCGGAUAAAAGUGGGGGGGGCGG"
  self-cleavage: 0.06
- sequence_data: "CCGCCUAACACUGCCAAUGCCGGUCCCAAGCCCGGUUAAAAGUGGAGGGGUCGG"
  self-cleavage: 0.52
